# Experimental target: human HDAC-1 (Homo sapiens, UniProt Q13547)
# Sequence (Q13547 whole entry): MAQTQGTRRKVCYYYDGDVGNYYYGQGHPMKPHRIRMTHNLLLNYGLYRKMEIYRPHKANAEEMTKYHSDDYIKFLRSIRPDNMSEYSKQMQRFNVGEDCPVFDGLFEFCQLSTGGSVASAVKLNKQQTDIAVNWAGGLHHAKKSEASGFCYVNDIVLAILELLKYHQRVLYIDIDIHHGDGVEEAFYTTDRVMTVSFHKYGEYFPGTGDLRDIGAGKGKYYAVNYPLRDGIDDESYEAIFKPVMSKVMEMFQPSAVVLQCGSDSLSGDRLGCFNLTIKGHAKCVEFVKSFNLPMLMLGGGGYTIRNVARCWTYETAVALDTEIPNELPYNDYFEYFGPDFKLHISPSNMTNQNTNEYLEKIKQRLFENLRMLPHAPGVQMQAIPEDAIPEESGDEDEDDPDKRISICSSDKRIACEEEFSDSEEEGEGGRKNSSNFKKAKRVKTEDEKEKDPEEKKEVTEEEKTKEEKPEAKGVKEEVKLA
# Assay details: Inhibition of histone deacetylase enzymatic (HDAC-1) activity
# Type: biochemical
# Method: The following protocol was used to assay the compounds of the invention. The mixture was pre-incubated for 5 minutes at room temperature. The reaction was started by bringing the temperature to 37° C. and adding 16 μl substrate.
pIC50: −log10 of the molar value.
Test readout: pIC50

QUERY: For the compound shown here, COc1ccc(NCc2ccc(C(=O)Nc3cc(-c4ccoc4)ccc3N)cc2)cc1OC , give the reported pIC50.
RESULT: > 6.00

---

# Experimental target: human HDAC-1 (Homo sapiens)
# Assay details: Inhibition of histone deacetylase enzymatic (HDAC-1) activity
# Assay type: biochemical
# Measurement conditions: Table 6A, comparative data for planar substituent; read-out: HDAC-1 activity (μm)
pIC50: −log10 of the molar value.
Hi there, I'd appreciate the recorded pIC50 for every entry that follows.

COc1ccc(NCc2ccc(C(=O)Nc3ccccc3N)cc2)cc1OC [AAA, reference compound] = > 6.00

With those in mind, consider the next molecule.
QUERY: Which measured pIC50 belongs to COc1ccc(NCc2ccc(C(=O)Nc3cc(C(F)(F)F)ccc3N)cc2)cc1OC [A, reference compound] , tested on human HDAC-1 (Homo sapiens)?
RESULT: 4.70 to 6.00

---

# Experimental target: human HDAC-1 (Homo sapiens)
# Assay details: Inhibition of histone deacetylase enzymatic (HDAC-1) activity
# Assay type: biochemical
# Measurement conditions: Table 5; Boc-Lys(Ac)-AMC substrate, 37° C., 20 minutes; read-out: HDAC-1 (μM), inhibition of histone deacetylase
Test readout: IC50

Below: 3 molecules and their reported IC50.
Nc1ccc(-c2cccs2)cc1NC(=O)c1ccc(CNc2nccc(-c3cccnc3)n2)cc1 [Cpd 43] = < 1 µM
COc1ccc(NCc2ccc(C(=O)Nc3cccc(-c4cccs4)c3)cc2)cc1OC [Cpd 32] = > 20 µM
COc1ccc(NCc2ccc(C(=O)Nc3cc(F)c(F)cc3N)cc2)cc1OC [B, reference compound] = 1 to 20 µM

QUERY: Give the reported IC50 for COc1ccc(NCc2ccc(C(=O)Nc3csc(-c4ccccc4)c3N)cc2)cc1OC [Cpd 61] (system: human HDAC-1 (Homo sapiens)).
RESULT: > 20 µM

---

# Experimental target: human HDAC-1 (Homo sapiens, UniProt Q13547)
# Assay details: Inhibition of histone deacetylase enzymatic (HDAC-1) activity
# Format: biochemical
# Measurement conditions: Table 5; Boc-Lys(Ac)-AMC substrate, 37° C., 20 minutes; read-out: HDAC-1 (μM), inhibition of histone deacetylase
Please provide measured IC50 for the entries that follow.

COc1ccc(NCc2ccc(C(=O)Nc3csc(-c4cccs4)c3N)cc2)cc1OC [Cpd 62] = > 20 µM
CCCCc1ccc(NC(=O)c2ccc(C)cc2)c(N)c1 [Cpd 71] = > 20 µM
COc1ccc(NCc2ccc(C(=O)Nc3cc(-c4cccs4)ccc3N)cc2)cc1OC [Cpd 6] = < 1 µM
COc1ccc(NCc2ccc(C(=O)Nc3cc(-c4cccs4)ccc3N)cc2)cc1F [Cpd 12] = < 1 µM

Next:
QUERY: Looking for the measured IC50 of COc1ccc(NCc2ccc(C(=O)Nc3cc(Br)ccc3N)cc2)cc1OC [Cpd 87] , can you help?
RESULT: 1 to 20 µM
